- assay-name: Pharmacokinetics of VCD stereoisomers in plasma after single oral dose of racemic valnoctamide to epileptic patients
- Format: in vivo, human
- experimental-parameters: Mean ± SD of six epileptic patients; single oral 400 mg racemic VCD
Readings of tmax for the listed molecules
Write down the numeric answer in min and omit the unit.

Answered cases to consult:
molecule	output-unit	reading
CCC(C)C(CC)C(N)=O (single isomer, unassigned; stereoisomer d) [Stereoisomer D]	min	49.8
CCC(C)C(CC)C(N)=O (single isomer, unassigned; stereoisomer a) [Stereoisomer A]	min	48
CCC(C)C(CC)C(N)=O (single isomer, unassigned; stereoisomer b) [Stereoisomer B]	min	45

Then there is this molecule:
// field: tmax; key: CCC(C)C(CC)C(N)=O (single isomer, unassigned; stereoisomer c) [Stereoisomer C] ; value = 49.8
